# TARGET: CDK2 (Homo sapiens)
# Construct: endogenous in cells; host or cells: OVCAR3 cells
# EXPERIMENT: Phospho-RB measurement in OVCAR3 cells (HTRF phospho-RB cellular kit)
# Assay type: cell-based
# MEASUREMENT_PARAMETERS: inhibition of RB phosphorylation at S807/811 (HTRF, TR-FRET ratio 665/620), 24 h compound treatment, 0.3 to 10,000 nM
pIC50: −log10 of the molar value.
Would you mind labelling by pIC50? At or over 6 is T, under is F.

>>> df
                                   molecule  label_class
0  CN1CC2CCC(C1)N2c1nc(-c2cccc(NS(=O)(=O)N3Cc4cccc(C(F)F)c4C3)c2F)c(-c2ccnc(NC3CC4(C3)CS(=O)(=O)C4)n2)s1            T
1  CN1CCN(S(=O)(=O)Nc2cccc(-c3nc(C45CC(C4)C5)sc3-c3ccnc(NC4CC5(C4)CS(=O)(=O)C5)n3)c2F)Cc2ccccc21            T
2  O=S1(=O)CC2(CC(Nc3nccc(-c4sc(C56CC(C5)C6)nc4-c4cccc(NS(=O)(=O)N5CCc6cc(Cl)ccc65)c4F)n3)C2)C1            T
3  O=S1(=O)CC2(CC(Nc3nccc(-c4sc(C56CC(C5)C6)nc4-c4cccc(NS(=O)(=O)N5CCc6cc(F)c(F)cc65)c4F)n3)C2)C1            T
4  Cn1ncc2c1CN(S(=O)(=O)Nc1cccc(-c3nc(C(C)(C)C)sc3-c3ccnc(Nc4ccc(N5CCNCC5)cc4)n3)c1F)C2            F
5  CC(C)(C)c1nc(-c2cccc(NS(=O)(=O)N3Cc4ccc(C(F)F)cc4C3)c2F)c(-c2ccnc(NC3CCN(S(C)(=O)=O)CC3)n2)s1            T

FYI, the data here is from patent US20260274833A1.
